Where do these numbers come from? They come from a collection of fitness landscapes (doi:10.1126/science.1257360).

B1: PhoQ; a variant is named by its letters at X, in order, P23837 (parent)
chain: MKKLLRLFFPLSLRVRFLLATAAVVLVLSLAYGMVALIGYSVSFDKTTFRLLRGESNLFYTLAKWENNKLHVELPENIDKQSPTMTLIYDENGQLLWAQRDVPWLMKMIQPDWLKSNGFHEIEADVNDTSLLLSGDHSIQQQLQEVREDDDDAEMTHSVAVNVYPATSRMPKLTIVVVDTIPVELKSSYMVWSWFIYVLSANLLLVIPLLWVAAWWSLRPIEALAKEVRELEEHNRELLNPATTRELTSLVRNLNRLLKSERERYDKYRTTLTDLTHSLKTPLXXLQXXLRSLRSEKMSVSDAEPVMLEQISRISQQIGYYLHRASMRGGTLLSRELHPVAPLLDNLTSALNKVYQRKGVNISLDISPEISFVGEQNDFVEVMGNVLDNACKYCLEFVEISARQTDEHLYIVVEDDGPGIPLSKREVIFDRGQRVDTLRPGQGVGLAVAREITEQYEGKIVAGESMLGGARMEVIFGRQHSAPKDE

- Variants of: B1
- measurement-description: enrichment ratio after two sorts for PhoP signalling (ratio (wild type AVST 3.29)); higher = more functional
- measurement-setup: with PhoP (E. coli)
Whole data set: some 140,000 sequences, median “enrichment ratio after two sorts for PhoP signalling” near 0, cut for the highest 2% near 11. Shown is part of a subset that was picked to be rich in the highest values.
assay-endpoint: enrichment ratio

The cases that follow already have their enrichment ratio on record.
NSSC : ≤ 0.25
HGMC : 13.3
RPHC : ≤ 0.25
SVGW : 14.4
PFMC : ≤ 0.25

// query # enrichment ratio lookup, item `KSMC`
// result ≤ 0.25

// query # enrichment ratio lookup, item `KPAG`
// result ≤ 0.25

// query # enrichment ratio lookup, item `KYGW`
// result ≤ 0.25

// query # enrichment ratio lookup, item `NGMC`
// result ≤ 0.25

// query # enrichment ratio lookup, item `SCGW`
// result 20.5
